tested on: control sera (pooled serum of ten healthy LUMC hospital workers; commercial negative donor pooled serum from the Dutch bloodbank); type: binding, human
Measured Control Serum Blood-Bank Looped peptides, listed per entry.

[
  {
    "chain_sequence": "NKHIDAYKTFPPTEP",
    "Control Serum Blood-Bank Looped peptides": 0.5
  },
  {
    "chain_sequence": "KDKKKKTDEAQPLPQ",
    "Control Serum Blood-Bank Looped peptides": 0.5
  },
  {
    "chain_sequence": "SRQLQNSMSGASADS",
    "Control Serum Blood-Bank Looped peptides": 0.5
  },
  {
    "chain_sequence": "TDEAQPLPQRQKKQP",
    "Control Serum Blood-Bank Looped peptides": 0.5
  },
  {
    "chain_sequence": "KHIDAYKTFPPTEPK",
    "Control Serum Blood-Bank Looped peptides": 0.3
  },
  {
    "chain_sequence": "SAFFGMSRIGMEVTP",
    "Control Serum Blood-Bank Looped peptides": 0.6
  },
  {
    "chain_sequence": "TWLTYHGAIKLDDKD",
    "Control Serum Blood-Bank Looped peptides": 0.4
  },
  {
    "chain_sequence": "AADMDDFSRQLQNSM",
    "Control Serum Blood-Bank Looped peptides": 0.4
  },
  {
    "chain_sequence": "RQLQNSMSGASADST",
    "Control Serum Blood-Bank Looped peptides": 0.4
  },
  {
    "chain_sequence": "PQRQKKQPTVTLLPA",
    "Control Serum Blood-Bank Looped peptides": 0.9
  },
  {
    "chain_sequence": "AQPLPQRQKKQPTVT",
    "Control Serum Blood-Bank Looped peptides": 0.4
  },
  {
    "chain_sequence": "TVTLLPAADMDDFSR",
    "Control Serum Blood-Bank Looped peptides": 0.3
  },
  {
    "chain_sequence": "KQPTVTLLPAADMDD",
    "Control Serum Blood-Bank Looped peptides": 0.4
  }
]

---

system: control sera (pooled serum of ten healthy LUMC hospital workers; commercial negative donor pooled serum from the Dutch bloodbank); type: binding, human; design: unit not given here
Measured Binding of Control Serum Blood-Bank to Looped peptides, listed per entry.
quantity: Binding of Control Serum Blood-Bank to Looped peptides

[
  {
    "chain_sequence": "KLKEDYQIGGYSEDR",
    "value_measured": 0.5
  },
  {
    "chain_sequence": "TEGDGISTPKLKEDY",
    "value_measured": 0.5
  },
  {
    "chain_sequence": "RATRRVRGGDGKMKE",
    "value_measured": 0.4
  },
  {
    "chain_sequence": "LLVAAGMEAQFLYLY",
    "value_measured": 0.5
  },
  {
    "chain_sequence": "FLIVAALVFLILCFT",
    "value_measured": 0.7
  },
  {
    "chain_sequence": "RSAPRITFGGPTDST",
    "value_measured": 0.6
  },
  {
    "chain_sequence": "RIGTQVLKTMSLYMA",
    "value_measured": 0.6
  },
  {
    "chain_sequence": "TVSQIQLSLLKVTAF",
    "value_measured": 0.7
  },
  {
    "chain_sequence": "ITFGGPTDSTDNNQN",
    "value_measured": 0.7
  },
  {
    "chain_sequence": "VQTCTPNVTINCQDP",
    "value_measured": 0.6
  },
  {
    "chain_sequence": "NVTQAFGRRGPEQTQ",
    "value_measured": 0.5
  },
  {
    "chain_sequence": "FMMSRRRLLACLCKH",
    "value_measured": 0.6
  },
  {
    "chain_sequence": "TASWFTALTQHGKEE",
    "value_measured": 0.4
  },
  {
    "chain_sequence": "ACRIIMRCWLCWKCK",
    "value_measured": 0.1
  },
  {
    "chain_sequence": "KYTQSTALQELLIQQ",
    "value_measured": 0.9
  },
  {
    "chain_sequence": "KKSAAEASKKPRQKR",
    "value_measured": 0.5
  },
  {
    "chain_sequence": "KILVRYNTRGNTYST",
    "value_measured": 0.5
  },
  {
    "chain_sequence": "QEEVQQELYSPLFLI",
    "value_measured": 0.7
  },
  {
    "chain_sequence": "ATATIPLQASLPFGW",
    "value_measured": 0.8
  },
  {
    "chain_sequence": "ETALALLLLDRLNQL",
    "value_measured": 0.8
  },
  {
    "chain_sequence": "IFNKLVKDPPNVQIH",
    "value_measured": 0.6
  },
  {
    "chain_sequence": "ALIARCWYLHEGHQT",
    "value_measured": 0.4
  },
  {
    "chain_sequence": "YNTRGNTYSTAWLCA",
    "value_measured": 0.5
  },
  {
    "chain_sequence": "VKPTVYVYSRVKNLN",
    "value_measured": 0.8
  },
  {
    "chain_sequence": "LIQQWIQFMMSRRRL",
    "value_measured": 0.4
  },
  {
    "chain_sequence": "HRWHTMVQTGTPNVT",
    "value_measured": 0.4
  },
  {
    "chain_sequence": "TAAFRDVLVVLNKRT",
    "value_measured": 0.8
  },
  {
    "chain_sequence": "QTQGNFGDQDLIRQG",
    "value_measured": 0.8
  },
  {
    "chain_sequence": "SSSRSRGNSRNSTPG",
    "value_measured": 0.5
  },
  {
    "chain_sequence": "YQECVRGTTVLLKEP",
    "value_measured": 0.9
  },
  {
    "chain_sequence": "PINTNSGPDDQIGYY",
    "value_measured": 0.5
  },
  {
    "chain_sequence": "LESTQITTDTGIENA",
    "value_measured": 0.4
  },
  {
    "chain_sequence": "LNTPKDHIGTRNPNN",
    "value_measured": 0.5
  },
  {
    "chain_sequence": "AFACADGTRHTYQLR",
    "value_measured": 0.7
  },
  {
    "chain_sequence": "TDSTDNNQNGGRNGA",
    "value_measured": 0.7
  },
  {
    "chain_sequence": "NTPKDHIGTRNPNNN",
    "value_measured": 0.5
  },
  {
    "chain_sequence": "RRRLLACLCKHKKVS",
    "value_measured": 0.3
  },
  {
    "chain_sequence": "ASKKPRQKRTATKQY",
    "value_measured": 0.6
  },
  {
    "chain_sequence": "FGRRGPEQTQGNFGD",
    "value_measured": 0.4
  },
  {
    "chain_sequence": "SPKFTTSLSLHKLLQ",
    "value_measured": 0.5
  },
  {
    "chain_sequence": "TSLSLHKLLQTLVLK",
    "value_measured": 0.6
  },
  {
    "chain_sequence": "RHSGVKDYVVVHGYF",
    "value_measured": 0.7
  },
  {
    "chain_sequence": "EPCPSGTYEGNSPFH",
    "value_measured": 0.6
  },
  {
    "chain_sequence": "WHTMVQTCTPNVTIN",
    "value_measured": 0.5
  },
  {
    "chain_sequence": "QGLPNNTASWFTALT",
    "value_measured": 0.8
  },
  {
    "chain_sequence": "TAFQHQNSKKTTKLV",
    "value_measured": 0.4
  },
  {
    "chain_sequence": "KLLQTLVLKMLHSSS",
    "value_measured": 0.7
  },
  {
    "chain_sequence": "TGPEASLPYGANKEG",
    "value_measured": 0.8
  },
  {
    "chain_sequence": "WYFYYLGTGPEASLP",
    "value_measured": 0.6
  },
  {
    "chain_sequence": "SLLKVTAFQHQNSKK",
    "value_measured": 0.4
  },
  {
    "chain_sequence": "NNAATVLQLPQGTTL",
    "value_measured": 0.8
  },
  {
    "chain_sequence": "HATATIPLQASLPFG",
    "value_measured": 0.7
  },
  {
    "chain_sequence": "KNPLLYDANYFVCWH",
    "value_measured": 0.6
  },
  {
    "chain_sequence": "TRHTYQLRARSVSPK",
    "value_measured": 0.7
  },
  {
    "chain_sequence": "VAFLAVFQSATKIIA",
    "value_measured": 0.7
  },
  {
    "chain_sequence": "GDQDLIRQGTDYKHW",
    "value_measured": 0.6
  },
  {
    "chain_sequence": "FLTLIVFTSCELYHY",
    "value_measured": 0.6
  },
  {
    "chain_sequence": "PTVYVYSRVKNLNSS",
    "value_measured": 1.1
  },
  {
    "chain_sequence": "AISPKFTTSLSLHKL",
    "value_measured": 0.8
  },
  {
    "chain_sequence": "VNVSLVKPTVYVYSR",
    "value_measured": 0.6
  },
  {
    "chain_sequence": "LLKTHRMCKYTQSTA",
    "value_measured": 0.4
  },
  {
    "chain_sequence": "PTDSTDNNQNGGRNG",
    "value_measured": 0.5
  },
  {
    "chain_sequence": "VSTNLCTHSFRKKQV",
    "value_measured": 0.5
  },
  {
    "chain_sequence": "YFVCWHTHNYDYCIP",
    "value_measured": 0.6
  },
  {
    "chain_sequence": "CNIVNVSLVKPTVYV",
    "value_measured": 0.6
  },
  {
    "chain_sequence": "DTGIENATFFIFNKL",
    "value_measured": 0.7
  }
]
